For each entry below, report its minimal effective dose value.
Test system: mature cyclic rats
Test: Ovulation inhibition in rat (in vivo progestagenic activity)
Details: 96 h, minimal active dose: level at which average number of ova is reduced by 60% relative to placebo, oral administration for 1 complete cycle (4 days), read-out: MAD
Experimental: Ovulation inhibition after oral administration of the compounds of the invention was studied in mature cyclic rats. Animals were treated with test compound (oral administration) for 1 complete cycle (4 days, from oestrus to pro-oestrus) and the number of ova in the oviduct was microscopically assessed at autopsy in the morning of the next (expected) oestrus. […]

IN: Entry `N#Cc1c(F)cc2c(c1Cl)N1CCC[C@@H](NC(=O)C(F)(F)F)[C@@H]1c1c(F)cccc1O2` has what minimal effective dose?
OUT: < 0.02 mg/kg

IN: Record request: minimal effective dose value, item N#Cc1c(F)cc2c(c1Cl)N1CCC[C@H](NC(=O)C(F)(F)F)[C@H]1c1cccc(F)c1O2 (single isomer, unassigned)
OUT: 0.025 mg/kg

IN: Item C=Cc1cccc2c1N1CCC[C@H](NC(=O)C(F)(F)F)[C@H]1c1ccccc1O2 (single isomer, unassigned) [eutomer of example 54 of WO03/084963, reference compound] has what recorded minimal effective dose?
OUT: > 4 mg/kg

IN: Look at this compound and give its reported minimal effective dose. `N#Cc1c(F)cc2c(c1Cl)N1CCC[C@@H](NC(=O)C(F)(F)F)[C@@H]1c1ccc(F)cc1O2`
OUT: ≤ 0.025 mg/kg

IN: Returns the measured minimal effective dose for the input compound. Input: CC(=O)N[C@H]1CCCN2c3c(cc(F)c(C#N)c3Cl)Oc3cccc(F)c3[C@H]12 (single isomer, unassigned)
OUT: < 0.02 mg/kg

IN: Please report the recorded minimal effective dose for N#Cc1cc2c(cc1F)Oc1ccccc1[C@@H]1[C@@H](NC(=O)C(F)(F)F)CCCN21 (single isomer, unassigned) .
OUT: 0.014 mg/kg

IN: Data request, read-out minimal effective dose, for `N#Cc1c(F)cc2c(c1C#N)N1CCC[C@@H](NC(=O)C(F)(F)F)[C@@H]1c1ccccc1O2`
OUT: 0.02 mg/kg

IN: Consider the compound `N#Cc1c(F)cc2c(c1Cl)N1CCC[C@@H](NC(=O)C(F)(F)F)[C@@H]1c1ccccc1O2` and give its measured minimal effective dose.
OUT: 0.08 mg/kg

IN: // minimal effective dose lookup, key: `N#Cc1cc2c(cc1F)Oc1cccc(F)c1[C@H]1[C@H](NC(=O)C(F)(F)F)CCCN21`
OUT: 0.01 mg/kg
